Record form. Attribute: inhibition. Fill in for each entry.
measured-on: Beta-secretase 1 (Homo sapiens, UniProt P56817)
Sequence (P56817 whole entry): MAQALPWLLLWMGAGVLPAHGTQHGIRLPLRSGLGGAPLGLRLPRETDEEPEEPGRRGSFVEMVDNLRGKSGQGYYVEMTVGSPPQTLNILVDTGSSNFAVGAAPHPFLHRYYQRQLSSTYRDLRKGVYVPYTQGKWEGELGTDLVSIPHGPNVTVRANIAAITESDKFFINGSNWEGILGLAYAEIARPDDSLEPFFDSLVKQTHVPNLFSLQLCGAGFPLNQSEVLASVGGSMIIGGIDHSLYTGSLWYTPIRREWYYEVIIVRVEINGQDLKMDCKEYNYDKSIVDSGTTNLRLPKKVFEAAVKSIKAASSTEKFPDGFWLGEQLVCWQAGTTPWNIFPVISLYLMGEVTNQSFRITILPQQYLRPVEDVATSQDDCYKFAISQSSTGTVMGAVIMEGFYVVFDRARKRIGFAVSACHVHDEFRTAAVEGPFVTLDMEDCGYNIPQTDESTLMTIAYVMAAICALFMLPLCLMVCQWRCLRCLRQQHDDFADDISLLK
protocol-notes: Inhibition of BACE1 (unknown origin) at 50 uM using Rh-EVNLDAEFK-Quencher as substrate after 60 mins by FRET assay relative to control
Note: unit % is implicit; provide only the numeric part.

Any idea what inhibition was measured for `CCOc1cccc(-c2nc(SCC(=O)Nc3nc(-c4cc(Cl)c(N)c(Cl)c4)cs3)[nH]c(=O)c2C#N)c1` ?
79.9

So what does the record say about inhibition for `CCOc1cccc(-c2nc(SCC(=O)Nc3nc(-c4cc(Cl)c(NC(C)=O)c(Cl)c4)cs3)[nH]c(=O)c2C#N)c1` ?
4.7

Report inhibition for `COc1cccc(-c2nc(SCC(=O)Nc3nc(-c4cc(Cl)c(N)c(Cl)c4)cs3)[nH]c(=O)c2C#N)c1` please.
91.8

Endpoint output: inhibition of `N#Cc1c(-c2cccc(C(F)(F)F)c2)nc(SCC(=O)Nc2nc(-c3cc(Cl)c(N)c(Cl)c3)cs2)[nH]c1=O` . Value?
86.1

inhibition for `N#Cc1c(-c2cccc(OC(F)(F)F)c2)nc(SCC(=O)Nc2nc(-c3cc(Cl)c(N)c(Cl)c3)cs2)[nH]c1=O` ?
39.6

Please give the measured inhibition for this molecule: `COc1cccc(-c2nc(SCC(=O)Nc3nc(-c4cccc(Br)c4)cs3)[nH]c(=O)c2C#N)c1`
90.4

Which value of inhibition has been reported for `COc1cccc(-c2nc(SCC(=O)Nc3nc(-c4cc(Cl)c(NC(C)=O)c(Cl)c4)cs3)[nH]c(=O)c2C#N)c1` in the records?
1.4

----------
protocol-notes: in vitro
assay-context: PAMPA
Description: Permeability of the compound at 25 ug/ml after 18 hrs by PAMPA
// returns NOT MET unless Papp at 18 h, 25 ug/ml is strictly below 0.9 ×10⁻⁶ cm/s, in which case MET

For `COc1cccc(-c2nc(SCC(=O)Nc3nc(-c4cc(Cl)c(N)c(Cl)c4)c[nH]3)[nH]c(=O)c2C#N)c1` , is the recorded Papp at 18 h, 25 ug/ml below the cut-off of 0.9 ×10⁻⁶ cm/s?
MET

Is Papp at 18 h, 25 ug/ml strictly under 0.9 ×10⁻⁶ cm/s for the entry `CCOc1cccc(-c2nc(SCC(=O)Nc3nc(-c4cc(Cl)c(N)c(Cl)c4)cs3)[nH]c(=O)c2C#N)c1` ?
MET

Input `Clc1cccc(Cl)c1N=C1NCCN1` ; condition: Papp at 18 h, 25 ug/ml strictly below 0.9 ×10⁻⁶ cm/s. Does it hold?
NOT MET

I'd appreciate it if you could check whether `COc1cccc(-c2nc(SCC(=O)Nc3nc(-c4cc(Cl)c(N)c(Cl)c4)cs3)[nH]c(=O)c2C#N)c1` has Papp at 18 h, 25 ug/ml smaller than 0.9 ×10⁻⁶ cm/s.
MET

Threshold test, Papp at 18 h, 25 ug/ml < 0.9 ×10⁻⁶ cm/s: `COc1cccc(-c2nc(SCC(=O)Nc3nc(-c4cccc(Br)c4)cs3)[nH]c(=O)c2C#N)c1`
NOT MET

----------
Please respond with reported CC50 at 72 h for every item in the list.
protocol-notes: Cytotoxicity against HEK293 cells assessed as decrease in cell viability after 72 hrs by CellTiter Glo luminescent assay
Format: cell-based
assay-context: human

Need CC50 at 72 h of `COc1cccc(-c2nc(SCC(=O)Nc3nc(-c4cccc(Br)c4)cs3)[nH]c(=O)c2C#N)c1` , thanks.
> 50 µM

I would be grateful if you could share the reported CC50 at 72 h for `N#Cc1c(-c2cccc(C(F)(F)F)c2)nc(SCC(=O)Nc2nc(-c3cc(Cl)c(N)c(Cl)c3)cs2)[nH]c1=O` .
47.7 µM

If you can, please state the reported CC50 at 72 h value of `COc1cccc(-c2nc(SCC(=O)Nc3nc(-c4cc(Cl)c(N)c(Cl)c4)c[nH]3)[nH]c(=O)c2C#N)c1` .
> 50 µM

Reported CC50 at 72 h, compound `CCOc1cccc(-c2nc(SCC(=O)Nc3nc(-c4cc(Cl)c(N)c(Cl)c4)cs3)[nH]c(=O)c2C#N)c1` : ____
> 50 µM

Entry CN[C@@H]1C[C@H]2O[C@@](C)([C@@H]1OC)n1c3ccccc3c3c4c(c5c6ccccc6n2c5c31)C(=O)NC4 [STAUROSPORINE] : reported CC50 at 72 h = ?
0.00354 µM

Returns the measured CC50 at 72 h for the input compound. Input: `COc1cccc(-c2nc(SCC(=O)Nc3nc(-c4cc(Cl)c(N)c(Cl)c4)cs3)[nH]c(=O)c2C#N)c1`
> 50 µM

Data origin, for the record: ChEMBL document CHEMBL4118072
